target: GST-fused human Keap1 (amino acid residues: 325-642) protein (Homo sapiens (Human))
Sequence (Q14145 325-624 limits assumed): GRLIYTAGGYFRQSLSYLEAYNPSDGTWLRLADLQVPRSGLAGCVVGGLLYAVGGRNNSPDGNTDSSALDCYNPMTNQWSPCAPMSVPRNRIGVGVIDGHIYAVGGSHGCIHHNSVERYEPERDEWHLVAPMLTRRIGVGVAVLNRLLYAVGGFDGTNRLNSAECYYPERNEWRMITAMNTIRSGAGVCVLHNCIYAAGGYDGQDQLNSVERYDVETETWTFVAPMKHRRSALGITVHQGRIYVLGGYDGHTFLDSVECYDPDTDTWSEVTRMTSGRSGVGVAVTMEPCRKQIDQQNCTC
pIC50: −log10 of the molar value.
Reported pIC50 values follow for various molecules

| molecule | pIC50 |
| --- | --- |
| Cc1c([C@H](CC(=O)O)c2cc(CN3Cc4nc(O)ccc4O[C@H](C(F)(F)F)C3)c3sccc3c2)cnc2c1nnn2C | ≥ 8.00 |
| CC[C@@H]1CN(Cc2cc(C(CC(=O)O)c3ccc4c(nnn4C)c3C)cc3ccsc23)Cc2nc(C(F)(F)F)ccc2O1 (stereo partly shown) | ≥ 8.00 |
| Cc1c([C@H](CC(=O)O)c2cc(CN3Cc4nc(O)ccc4CC(C4CC4)C3)c3sccc3c2)ccc2c1nnn2C (single isomer, unassigned) [Example 89] | 6.52 to 7.52 |
| CC[C@@H]1CN(Cc2cc([C@H](CC(=O)O)c3ccc4c(nnn4C)c3C)cc3ccsc23)Cc2nc(N)ccc2O1 | ≥ 8.00 |

Request: Which pIC50 value is on record for "CC[C@H]1Cc2cccnc2CN(Cc2cc([C@H](CC(=O)O)c3cnc4c(nnn4C)c3C)cc3ccsc23)C1" ?
Response: 7.52 to 8.00

Request: So what does the record say about pIC50 for "Cc1c([C@H](c2cc(CN3Cc4nc(O)ccc4OC4(CC4)C3)c3sccc3c2)C(C)(C)C(=O)O)ccc2c1nnn2C" ?
Response: 7.52 to 8.00

Request: Request the reported pIC50 associated with "Cc1c([C@H](CC(=O)O)c2cc(CN3Cc4nc(O)ccc4O[C@H](C4CC4)C3)c3sccc3c2)cnc2c1nnn2C"
Response: 7.52 to 8.00

Request: Would you kindly share the measured pIC50 for "Cc1c([C@@H](CC(=O)O)c2cc(CN3Cc4nc(O)ccc4OC4(CC4)C3)c3sccc3c2)ccc2c1nnn2C" ?
Response: 7.52 to 8.00

Request: Reported pIC50, molecule "Cc1c([C@H](c2cc(CN3Cc4nc(O)ccc4O[C@H](C4CC4)C3)c3sccc3c2)C(C)(C)C(=O)O)cnc2c1nnn2C" : ____
Response: 7.52 to 8.00

Request: Recorded pIC50 of "CC[C@@H]1CN(Cc2cc([C@@H](CC(=O)O)c3cc(OC)c4c(nnn4C)c3C)cc3ccsc23)Cc2nc(O)ccc2O1" , please.
Response: 7.52 to 8.00

Request: Record request: pIC50 value, item "Cc1c([C@H](CC(=O)O)c2cc(CN3Cc4nc(O)ccc4O[C@H](C(C)(F)F)C3)c3sccc3c2)ccc2c1nnn2C"
Response: 7.52 to 8.00

Request: Given the molecule "CC[C@@H]1CN(Cc2cc([C@H](CC(=O)O)c3ccc4c(nnn4C)c3C)cc3ccsc23)Cc2nc(NC)ccc2O1" , what is its reported pIC50?
Response: ≥ 8.00

Request: Find the recorded pIC50 belonging to "CC[C@@H]1CN(Cc2cc([C@H](CC(=O)O)c3ccc4c(nnn4C)c3C)cc3ccsc23)Cc2nc(O)ccc2O1" and report it.
Response: 7.52 to 8.00
